Test system: Escherichia coli IFO 3044
protocol-details: Minimal inhibitory concentration (MIC) of preservative solutions, serial dilution in culture medium, read with the naked eye
Assay type: cell-based
test-context: IFO3044, 72 h, pH 6.5, Culture medium without addition of cyclodextrin, E. coli IFO 3044, 10^5 cfu/ml, 35°C, 3 days
Known MIC of a selection of compounds
experimental-endpoint: MIC (µg/mL)

>>> recorded_result("CCCCOC(=O)c1ccc(O)cc1 [Butylparaben]")
125
>>> recorded_result("CCOC(=O)c1ccc(O)cc1 [Ethylparaben]")
500
>>> recorded_result("Cc1cc(O)cc(C)c1Cl [p-Chloro-m-xylenol, p-chloro-m-xylenol]")
100
>>> recorded_result("Oc1ccc(Cl)cc1 [p-Chlorophenol, p-chlorophenol]")
200
>>> recorded_result("COC(=O)c1ccc(O)cc1 [Methylparaben]")
500
>>> recorded_result("Cc1cc(O)ccc1Cl [p-Chloro-m-cresol, p-chloro-m-cresol]")
200
>>> recorded_result("CCCOC(=O)c1ccc(O)cc1 [Propylparaben]")
250

* * *

Some compounds, each annotated with its measured MIC.
System: Aspergillus niger ATCC 9642
protocol-details: Minimal inhibitory concentration (MIC) of preservative solutions, serial dilution in culture medium, read with the naked eye
Assay type: cell-based
test-context: ATCC9642, 120 h, pH 6.5, Culture medium + 5% α-cyclodextrin, A. niger ATCC 9642, 10^5 cfu/ml, 25°C, 5 days
Experimental: Thus, two culture media are prepared by adding 0% and 5% of a-cyclodextrin, respectively, to a 1/15 M phosphate buffer (pH 6.5) containing 2% of Polypeptone (Daigo Nutritive Chemicals Ltd., Japan). The preservative is added to each medium and the resulting solution is diluted serially with each of the respective media to give solutions differing in preservative concentration. The test organisms are added to these solutions to a final concentration of 10^5 cfu/ml (cfu: colony forming unit).
experimental-endpoint: MIC (µg/mL)

>>> recorded_result("CCCCOC(=O)c1ccc(O)cc1")
4000
>>> recorded_result("Cc1cc(O)cc(C)c1Cl")
75
>>> recorded_result("CCOC(=O)c1ccc(O)cc1")
4000
>>> recorded_result("Cc1cc(O)ccc1Cl")
200
>>> recorded_result("CCCOC(=O)c1ccc(O)cc1")
4000
>>> recorded_result("Oc1ccc(Cl)cc1")
400
>>> recorded_result("COC(=O)c1ccc(O)cc1")
4000
